Source: patent US20100210597A1

# Protocol Text: In vitro Caco-2 assay for cell permeability
# Type: in vitro ADME
# Experimental Parameters: human, Caco-2, pH 7.4, 10 uM, 2 hour incubation; read-out: Permeability Basolateral to Apical Papp(B → A) Rep. 2
# Description: Caco-2 cells (ATCC Cat. # HTB-37) were grown on fibrillar collagen-coated, microporous, polycarbonate membranes in 24-well BioCaot™ insert plates. […] Prior to dosing, the transepithelial electric resistance (TEER) of the Caco-2 cells in each well was measured to ensure the quality of the monolayers. […] To quantify test compounds by LC/MS/MS, a related geldanamycin-like compound, 17-methoxyethylamino geldanamycin (Schnur et al., 1995), was used as the internal standard. […]
Overview of reported Papp B→A at 2 h, 10 uM across a group of compounds:
Enter your answer as a number in ×10⁻⁶ cm/s; do not include the unit.

Structure Smiles String: CO[C@H]1C[C@H](C)Cc2cc(cc(OP(=O)(O)O)c2)NC(=O)/C(C)=C/CC[C@H](C)[C@@H](OC(N)=O)/C(C)=C/[C@H](C)[C@H]1O
Papp B→A at 2 h, 10 uM, ×10⁻⁶ cm/s: 0.48

Now turn to the next compound.
State, in one line, measured Papp B→A at 2 h, 10 uM of CO[C@H]1C[C@H](C)Cc2cc(O)cc(c2)NC(=O)/C(C)=C/CC[C@H](C)[C@@H](OC(N)=O)/C(C)=C/[C@H](C)[C@H]1O
4.21

* * *

# Protocol Text: In vitro Caco-2 assay for cell permeability
# Assay type: in vitro ADME
# Experimental Parameters: human, Caco-2, pH 7.4, 10 uM, 2 hour incubation; read-out: Permeability Apical to Basolateral Papp(A → B) Rep. 1
Listed here are compounds together with their documented Papp A→B at 2 h, 10 uM.
Number only, in nm/s; omit the unit.

Compound: CO[C@H]1C[C@H](C)Cc2cc(cc(OP(=O)(O)O)c2)NC(=O)/C(C)=C/CC[C@H](C)[C@@H](OC(N)=O)/C(C)=C/[C@H](C)[C@H]1O [Compound 20]
Papp A→B at 2 h, 10 uM / nm/s: 6.7

Now look at this one.
Assign Papp A→B at 2 h, 10 uM to the following record: CO[C@H]1C[C@H](C)Cc2cc(O)cc(c2)NC(=O)/C(C)=C/CC[C@H](C)[C@@H](OC(N)=O)/C(C)=C/[C@H](C)[C@H]1O [Compound 17]
3.9

* * *

# Protocol Text: In vitro Caco-2 assay for cell permeability
# Format: in vitro ADME
# Experimental Parameters: human, Caco-2, pH 7.4, 10 uM, 2 hour incubation; read-out: Permeability Apical to Basolateral Papp(A → B) Rep. 2
Readout Kind: Papp A→B at 2 h, 10 uM

Compound: CO[C@H]1C[C@H](C)Cc2cc(O)cc(c2)NC(=O)/C(C)=C/CC[C@H](C)[C@@H](OC(N)=O)/C(C)=C/[C@H](C)[C@H]1O [Compound 17]
Readout Kind: Papp A→B at 2 h, 10 uM
Recorded Measurement: 0.49 ×10⁻⁶ cm/s

In the following, a different compound is considered.
Return the recorded Papp A→B at 2 h, 10 uM value; entry: CO[C@H]1C[C@H](C)Cc2cc(cc(OP(=O)(O)O)c2)NC(=O)/C(C)=C/CC[C@H](C)[C@@H](OC(N)=O)/C(C)=C/[C@H](C)[C@H]1O [Compound 20]
0.31 ×10⁻⁶ cm/s

* * *

# Protocol Text: In vitro cleavage assay in buffer
# Assay type: physicochemical
# Experimental Parameters: 5% glucose, 23 degrees C; read-out: half-life of disappearance (converted)
Readout Kind: half-life at 0.1 mg/ml (min)
// note: answer is a bare numeric in min

Give the reported half-life at 0.1 mg/ml for this molecule. CNCCN(C)C(=O)Oc1cc2cc(c1)NC(=O)/C(C)=C/CC[C@H](C)[C@@H](OC(N)=O)/C(C)=C/[C@H](C)[C@@H](O)[C@@H](OC)C[C@H](C)C2 [Compound 23]
1920
